System: AGS gastric cancer cell
Experiment: MTT anti-proliferative assay, AGS
Assay type: cell-based, human
Conditions: MTT, 48 h
Protocol: The anti-proliferation activities of the synthesized analogs were assessed by an in vitro MTT assay conducted on thirteen human cell lines. Their cytotoxic activities were evaluated by measuring the inhibition of net cell growth. […] 1.6. Cell lines and cell culture MTT was purchased from Sigma-Aldrich Co. (St. Louis, MO, USA). The PI and Annexin V-FITC apoptosis detection kit were purchased from Invitrogen (Eugene, OR, USA). […] the anti-proliferative activities were determined by MTT assay. […]
observation type: IC50

Task: Consider the molecule CCCCCCOc1ccc(/C=C(\C#N)c2ccc(OC(F)(F)F)cc2)cc1 . State its measured IC50.
Result: > 100 µM

Task: Consider the molecule CCN(CC)c1ccc(/C=C(\C#N)c2ccc(C(F)(F)F)cc2)cc1 . State its measured IC50.
Result: > 100 µM

Task: Consider the molecule N#C/C(=C\c1cccs1)c1ccc(OC(F)(F)F)cc1 . State its measured IC50.
Result: 89.8 µM
